system: Mus musculus; assay: In vivo effective dose required to antagonize the apomorphine induced climbing response in mice administered intraperitoneally.; type: functional; conditions: ip
outcome.measure: ED50

INSERT INTO assay_data (smiles_string, measured_on, measurement) VALUES
  ('Cl.Nc1ccc(C(=O)NCCCCN2CCN(c3nsc4ccccc34)CC2)cc1', 'Mus musculus', '> 25 mg/kg'),
  ('Cl.Nc1ccc(Cl)cc1C(=O)NCCCCN1CCN(c2nsc3ccccc23)CC1', 'Mus musculus', '< 6 mg/kg'),
  ('CC(C)(C)OC(=O)Nc1ccc(C(=O)NCCCCN2CCN(c3nsc4ccccc34)CC2)cc1.Cl', 'Mus musculus', '> 25 mg/kg'),
  ('Cl.O=C(NCCCCN1CCN(c2nsc3ccccc23)CC1)c1cc(Cl)cc(Cl)c1', 'Mus musculus', '> 25 mg/kg');
